# Assayed Target: Wnt-responsive promoter (TCF/LEF)
# Test Description: Wnt-dependent luciferase reporter assay
Where a SMILES comes first, the peptide text is derived from it.
I'd be grateful if you could share measured EC50 for these entries.

input: Param item = CC[C@H](C)[C@H](NC(=O)[C@H](CC(C)C)NC(=O)[C@@H](NC(=O)[C@H](Cc1c[nH]c2ccccc12)NC(C)=O)[C@@H](C)CC)C(=O)N[C@@H](CO)C(=O)N[C@@H](Cc1ccccc1)C(=O)N[C@@H](Cc1c[nH]c2ccccc12)C(=O)NCC(=O)O [compound 195] (Ac-WILISFWG-OH) ; retrieve measured EC50.
output: < 7.5 µM

input: Input CC[C@H](C)[C@@H]1NC(=O)[C@H](CC(C)C)NC(=O)[C@H](Cc2ccccc2)NC(=O)[C@H](Cc2c[nH]c3ccccc23)NC(=O)[C@H](CCSC)NC(=O)CCCCCNC(=O)C[C@@H](C(=O)O)NC(=O)[C@H](Cc2c[nH]c3ccccc23)NC(=O)[C@H](Cc2ccccc2)NC(=O)[C@H](CS)NC1=O [compound 189] (HELM PEPTIDE1{[O=C(CCCCCN[*:1])[*:2]].M.W.F.L.I.C.F.W.D}$PEPTIDE1,PEPTIDE1,1:R1-10:R3$$$V2.0)
output: < 7.5 µM

input: Input CC[C@H](C)[C@H](NC(=O)[C@H](CC(C)C)NC(=O)[C@H](Cc1ccccc1)NC(=O)[C@H](C)N(C)C(=O)[C@H](CCSC)NC(=O)[C@H](CCCNC(=N)N)NC(=O)[C@H](CO)NC(=O)[C@@H](N)CCSC)C(=O)N[C@@H](CO)C(=O)N[C@@H](Cc1ccccc1)C(=O)N[C@@H](Cc1c[nH]c2ccccc12)C(=O)NCC(=O)O [compound 50] (HELM PEPTIDE1{M.S.R.M.[meA].F.L.I.S.F.W.G}$$$$V2.0)
output: > 30 µM

input: Input CC[C@H](C)[C@H](NC(=O)[C@H](CC(C)C)NC(=O)[C@H](Cc1ccccc1)NC(=O)[C@H](Cc1c[nH]c2ccccc12)NC(=O)[C@H](CCSC)NC(=O)[C@H](CCCNC(=N)N)NC(=O)[C@H](CO)NC(=O)[C@@H](N)Cc1c[nH]c2ccccc12)C(=O)N[C@@H](CO)C(=O)N[C@@H](Cc1ccccc1)C(=O)N[C@@H](Cc1c[nH]c2ccccc12)C(N)=O [compound 79] (H-WSRMWFLISFW-NH2)
output: > 30 µM

input: Input CC[C@H](C)[C@@H]1NC(=O)[C@H](Cc2c[nH]cn2)NC(=O)[C@H](CCC(=O)O)NC(=O)[C@H](Cc2ccccc2)NC(=O)[C@H](Cc2c[nH]c3ccccc23)NC(=O)[C@H](CO)NC(=O)[C@H]([C@@H](C)CC)NC(=O)[C@H](C)N(C)C(=O)[C@H](CC(C)C)NC(=O)[C@@H]2CCCN2C(=O)[C@H](CCSC)NC(=O)[C@@H](N)CCCCNC(=O)CNC1=O [compound 29] (HELM PEPTIDE1{K.M.P.L.[meA].I.S.W.F.E.H.I.G}$PEPTIDE1,PEPTIDE1,1:R3-13:R2$$$V2.0; bridges inferred)
output: > 30 µM

input: Input CC[C@H](C)[C@H](NC(=O)[C@H](CC(C)C)NC(=O)[C@H](Cc1ccccc1)NC(=O)[C@H](Cc1c[nH]c2ccccc12)NC(=O)[C@H](CCSC)NC(=O)[C@H](CCCNC(=N)N)NC(=O)[C@H](CO)NC(=O)[C@@H](N)CCSC)C(=O)N[C@@H](CS)C(=O)N[C@@H](Cc1ccccc1)C(=O)N[C@@H](Cc1c[nH]c2ccccc12)C(=O)NCC(=O)O [compound 46] (H-MSRMWFLICFWG-OH)
output: < 7.5 µM

input: Input CC[C@H](C)[C@H](NC(=O)[C@H](CC(C)C)NC(=O)[C@H](Cc1ccccc1)NC(=O)[C@H](Cc1c[nH]c2ccccc12)NC(=O)[C@@H](N)CC(=O)O)C(=O)N[C@@H](CS)C(=O)N[C@@H](Cc1ccccc1)C(=O)N[C@@H](Cc1c[nH]c2ccccc12)C(=O)NCC(=O)O [compound 142] (H-DWFLICFWG-OH)
output: < 7.5 µM

input: Input CC[C@H](C)[C@H](NC(=O)[C@H](CC(C)C)NC(=O)[C@@H](NC(=O)[C@H](Cc1c[nH]c2ccccc12)NC(=O)[C@H](CCSC)NC(=O)[C@@H](N)Cc1c[nH]cn1)[C@@H](C)CC)C(=O)N[C@@H](CO)C(=O)N[C@@H](Cc1ccccc1)C(=O)N[C@@H](Cc1c[nH]c2ccccc12)C(=O)NCC(=O)O [compound 123] (H-HMWILISFWG-OH)
output: < 7.5 µM

input: Input CC[C@H](C)[C@H](NC(=O)[C@H](Cc1c[nH]c2ccccc12)NC(=O)[C@@H](N)CCSC)C(=O)N[C@@H](CC(C)C)C(=O)N[C@H](C(=O)NC(C)(CO)C(=O)N[C@@H](Cc1ccccc1)C(=O)N[C@@H](Cc1c[nH]c2ccccc12)C(=O)NCC(=O)O)[C@@H](C)CC (stereo partly shown) [compound 136] (HELM PEPTIDE1{M.W.I.L.I.[CC(CO)(N[*:1])C(=O)[*:2]].F.W.G}$$$$V2.0)
output: > 30 µM

input: Input CC[C@H](C)[C@@H]1NC(=O)[C@H](CC(C)C)NC(=O)[C@H](Cc2ccccc2)NC(=O)[C@H](Cc2c[nH]c3ccccc23)NC(=O)[C@@H](N)CC(=O)NCCCC[C@@H](C(=O)NCC(=O)O)NC(=O)[C@H](Cc2c[nH]c3ccccc23)NC(=O)[C@H](Cc2ccccc2)NC(=O)[C@H](CS)NC1=O [compound 176] (HELM PEPTIDE1{D.W.F.L.I.C.F.W.K.G}$PEPTIDE1,PEPTIDE1,1:R3-9:R3$$$V2.0)
output: 7.5 to 15 µM

Origin of measurements: patent US12441768B2
